# System: SF-539 CNS
# Assay overview: NCI-60 one-dose screen, 48 h
# Conditions used: 10 µM unless noted
This is part of a sample that, as a whole, favours compounds with a hit. Of some 83,000 tested, about 20% had one in any assay. Active and inactive are the calls of the source. How the source made its calls: active means growth percent below 10; inactive means the rest.
Pick from active, inactive when you respond.

Smiles entry | Category
Cc1cc(Nc2nc(SCc3ccc(C(=O)Nc4ccc(F)cc4N)cc3)nn3cccc23)n[nH]1 | active
CCOCc1cc(C(C)(C)C)ccc1O | inactive
CC[C@]12C=CCN3CC[C@@]4(c5ccc(OC)cc5N(C)[C@H]4[C@@](O)(C(=O)OC)[C@@H]1OC(=O)CCC(=O)O[C@H]1CC[C@H]4[C@@H]5CC[C@H]6CC(=O)CC[C@]6(C)[C@H]5CC[C@]14C)[C@@H]32 | inactive
O=C1c2ccccc2C(=O)c2c1oc1c2c(=O)[nH]c2ccc(Cl)cc21 | active
COC(=O)[C@]1(C)CCC[C@]2(C)[C@H]3C[C@H]4C(C(C)C)=C[C@]3(CC[C@H]21)[C@@H]1C(=O)N(CCC#N)C(=O)[C@@H]14 | inactive

For this compound, state the assay outcome: COc1ccc2nc(-c3ccc(Cl)cc3)cc(-c3nnc(SCC(=O)Nc4ccc(/C(C)=N\O)cc4)o3)c2c1 inactive

What do you have for CN(C)CCCn1c2c(c3cc(-c4ccco4)ccc3c1=O)C(=O)c1ccccc1-2 ? inactive

And COc1cccc(NC(=O)Nc2ccc(Oc3ncnc4[nH]c(C)c(C)c34)cc2)c1 ? inactive

Next: O=C1C(=O)c2c(nc3ccc(C(F)(F)F)cn23)-c2ccccc21 active

Continue with C=C(C)[C@@H]1CC[C@]2(C(=O)O)CC[C@]3(C)[C@H](CC[C@@H]4[C@@]5(C)C[C@@H](CC#Cc6ccc(Cl)cc6)C(=O)C(C)(C)[C@@H]5CC[C@]43C)[C@@H]12 inactive

Recorded values, source PubChem BioAssay (NCI).
